Target: enzyme ACAT-1 (Homo sapiens)
Construct: endogenous in cells; host or cells: HepG2
Sequence (P35610 1-550): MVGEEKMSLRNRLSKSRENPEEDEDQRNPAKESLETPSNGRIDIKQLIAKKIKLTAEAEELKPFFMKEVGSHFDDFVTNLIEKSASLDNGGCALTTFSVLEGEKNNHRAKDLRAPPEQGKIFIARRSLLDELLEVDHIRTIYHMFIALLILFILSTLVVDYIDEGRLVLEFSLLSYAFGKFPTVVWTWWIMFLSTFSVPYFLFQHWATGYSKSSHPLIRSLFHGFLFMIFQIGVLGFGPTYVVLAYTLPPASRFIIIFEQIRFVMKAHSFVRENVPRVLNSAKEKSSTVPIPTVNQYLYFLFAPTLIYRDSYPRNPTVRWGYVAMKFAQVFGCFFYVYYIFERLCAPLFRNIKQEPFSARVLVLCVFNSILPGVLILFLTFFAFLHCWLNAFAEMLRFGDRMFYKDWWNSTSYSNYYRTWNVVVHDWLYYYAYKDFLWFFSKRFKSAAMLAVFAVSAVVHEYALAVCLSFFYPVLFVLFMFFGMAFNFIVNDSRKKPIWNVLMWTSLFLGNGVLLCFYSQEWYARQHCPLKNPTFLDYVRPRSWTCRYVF
Experiment: HepG2 NBD-cholesterol fluorescence test for inhibitory activity towards the enzyme ACAT-1 (SOAT-1)
Type: cell-based
Conditions: HepG2 cells, NBD-cholesterol 1 μg/ml, incubation 6 hours at 37° C., fluorescence read (490/540 nm); read-out: IC50
pIC50: −log10 of the molar value.
Given measured pIC50, output Met if it is greater than or equal to 9 and Not met if not.

Use the examples below as a reference point.
compound: CCc1cccc(CC)c1NC(=O)CN1C(=O)N(c2ccc(C)cc2)C2(CCOCC2)C1=O
assignedCategory: Not met

compound: Cc1ccc(N2C(=O)N(CC(=O)Nc3c(C(C)C)cccc3C(C)C)C(=O)C23CCC(O)CC3)cc1 (centres unmarked)
assignedCategory: Not met

Consider the record given below.
Problem: Would you say Cc1ccc(N2C(=O)N(CC(=O)Nc3c(C(C)C)cccc3C(C)C)C(=O)C23CCOCC3)cc1 shows pIC50 at minimum 9?
Result: Met

---

Target: enzyme ACAT-1 (Homo sapiens, UniProt P35610)
Construct: endogenous in cells; host or cells: HepG2
Test: HepG2 NBD-cholesterol fluorescence test for inhibitory activity towards the enzyme ACAT-1 (SOAT-1)
Assay type: cell-based
This section presents compounds with their documented IC50 values.
// units = µM; emit number, no label

// worked examples, IC50 included
smilesRepresentation: Cc1ccc(N2C(=O)N(CC(=O)Nc3c(C(C)C)cccc3C(C)C)C(=O)C23CCN(C(=O)c2ccccc2)CC3)cc1
reportedProperty: IC50
valueUnits: µM
measuredResult: 0.086

smilesRepresentation: CC(=O)N1CCC2(CC1)C(=O)N(CC(=O)Nc1c(C(C)C)cccc1C(C)C)C(=O)N2c1ccc(C)cc1
reportedProperty: IC50
valueUnits: µM
measuredResult: 1.6

smilesRepresentation: Cc1ccc(N2C(=O)N(CC(=O)Nc3c(C(C)C)cccc3C(C)C)C(=O)C23CCN(C)CC3)cc1
reportedProperty: IC50
valueUnits: µM
measuredResult: 0.02

smilesRepresentation: Cc1ccc(N2C(=O)N(CC(=O)Nc3c(C(C)C)cccc3C(C)C)C(=O)C23CCN(C(=O)OC(C)(C)C)CC3)cc1
reportedProperty: IC50
valueUnits: µM
measuredResult: 0.029

Next, consider the following compound.
Problem: IC50 for Cc1ccc(N2C(=O)N(CC(=O)Nc3c(C(C)C)cccc3C(C)C)C(=O)C23CCN(Cc2ccccc2)CC3)cc1 ?
Result: 0.0058
